Tested on: rodent lifetime carcinogenesis bioassay, tumor incidence TD50
Assay: carcinogenic potency in animals, long-term in vivo studies, CPDB compilation (AID 1745844)
Settings: mouse; strain B6C3F1; males; inhaled; site: all sites; lesion: malignant lymphoma, lymphocytic type; dosed 26 weeks; study length 104 weeks
Quantity: TD50

Query: Given the entry `C=CC=C` , what TD50 was observed with rodent lifetime carcinogenesis bioassay, tumor incidence TD50?
Result: 46 mg/kg/day

----------
Test system: rodent lifetime carcinogenesis bioassay, tumor incidence TD50
Experiment: carcinogenic potency in animals, long-term in vivo studies, CPDB compilation (AID 1745844)
Settings: rat; strain Sprague-Dawley; females; by gavage; site: liver; lesion: hepatocellular carcinoma; dosed 32 weeks; study length 101 weeks
Quantity: TD50

Query: Given the entry `O=NN(CCCC(F)(F)F)CCCC(F)(F)F` , what TD50 was observed with rodent lifetime carcinogenesis bioassay, tumor incidence TD50?
Result: 0.707 mg/kg/day

----------
Tested on: rodent lifetime carcinogenesis bioassay, tumor incidence TD50
Assay: carcinogenic potency in animals, long-term in vivo studies, CPDB compilation (AID 1745844)
Conditions: mouse; strain CD-1 HaM/ICR; females; in feed; site: any site (literature study); lesion: several types; types named in the paper; dosed 68 weeks; study length 86 weeks
Quantity: TD50 (mg/kg/day)
Hi! Could you send only the number? It should be in mg/kg/day, unit omitted.

Query: Please report the recorded TD50 for `Nc1ccc(Oc2ccc(Cl)cc2)cc1` .
Result: 598

----------
Test system: rodent lifetime carcinogenesis bioassay, tumor incidence TD50
Assay: carcinogenic potency in animals, long-term in vivo studies, CPDB compilation (AID 1745844)
Details: mouse; strain C57BL/6; males; in feed; site: thyroid gland; lesion: follicular-cell tumor; dosed 125 weeks; study length 153 weeks
Quantity: TD50

Query: Please report the recorded TD50 for `CC/C(=C(/CC)c1ccc(O)cc1)c1ccc(O)cc1` .
Result: 0.05 mg/kg/day

----------
System: rodent lifetime carcinogenesis bioassay, tumor incidence TD50
Experiment: carcinogenic potency in animals, long-term in vivo studies, CPDB compilation (AID 1745844)
Details: rat; strain Fischer 344; males; in drinking water; site: Zymbal's gland; lesion: carcinoma + carcinoma, bilateral; dosed 88 weeks; study length 92 weeks
Quantity: TD50 (mg/kg/day)
Hi! Could you send only the number? It should be in mg/kg/day, unit omitted.

Query: Please report the recorded TD50 for `COc1cc(-c2ccc(N)c(OC)c2)ccc1N` .
Result: 6.71

----------
Test system: rodent lifetime carcinogenesis bioassay, tumor incidence TD50
Assay: carcinogenic potency in animals, long-term in vivo studies, CPDB compilation (AID 1745844)
Conditions: hamster; strain Syrian Golden; females; by gavage; site: pancreas; lesion: several types; types named in the paper; dosed 59 weeks; study length 83 weeks
Quantity: TD50

Query: Please report the recorded TD50 for CC1CN(N=O)CC(C)O1 (stereo unspecified) .
Result: 5.75 mg/kg/day

----------
System: rodent lifetime carcinogenesis bioassay, tumor incidence TD50
Test: carcinogenic potency in animals, long-term in vivo studies, CPDB compilation (AID 1745844)
Details: mouse; strain B6C3F1; males; by gavage; site: subcutaneous tissue; lesion: fibrosarcoma; dosed 103 weeks; study length 104 weeks
Quantity: TD50
Note to self: number, then unit, no commentary.

Example molecules with recorded TD50:
O=Cc1ccco1 : 212 mg/kg/day
CC1=CC(=O)CC(C)(C)C1 : 1170 mg/kg/day

Turning now to a further record.
Query: Given the entry CN(C)CCC(c1ccc(Cl)cc1)c1ccccn1 (stereo not drawn) , what TD50 was observed with rodent lifetime carcinogenesis bioassay, tumor incidence TD50?
Result: 140 mg/kg/day
